This section presents molecules with their documented metabolised at 0.25 h, 5 µM values.
experiment.description: Metabolic stability in rat liver microsomes assessed as compound metabolized at 5 uM after 15 mins
Assay type: ADME, Microsome
test.conditions: read-out: Drug metabolism
experimental.readout: metabolised at 0.25 h, 5 µM (%)

>>> obs_value("COc1ccc2c(c1)C=C1Cn3c-2c(C2CCCCC2)c2ccc(cc23)C(=O)NS(=O)(=O)N(C(C)C)CCCCN(C)C1=O")
12
>>> obs_value("COc1ccc2c(c1)C=C1Cn3c-2c(C2CCCCC2)c2ccc(cc23)C(=O)NS(=O)(=O)N(C)CCCN(C)C1=O")
28
>>> obs_value("COc1ccc2c(c1)C=C1Cn3c-2c(C2CCCCC2)c2ccc(cc23)C(=O)NS(=O)(=O)N(C)CCN2CCN(CC2)C1=O")
17
>>> obs_value("CN1CCOCCN(C)S(=O)(=O)NC(=O)c2ccc3c(C4CCCCC4)c4n(c3c2)CC(=Cc2cc(F)ccc2-4)C1=O")
37
>>> obs_value("CN1CCOCCN(C)S(=O)(=O)NC(=O)c2ccc3c(C4CCCCC4)c4n(c3c2)CC(=Cc2cc(Cl)ccc2-4)C1=O")
22
>>> obs_value("COc1ccc2c(c1)C=C1Cn3c-2c(C2CCCCC2)c2ccc(cc23)C(=O)NS(=O)(=O)N(C)CCCCCNC1=O")
27
>>> obs_value("COc1ccc2c(c1)C1C[C@]13Cn1c-2c(C2CCCCC2)c2ccc(cc21)C(=O)NS(=O)(=O)N(C)CCOCCN(C)C3=O (stereo partly specified)")
72
>>> obs_value("COc1ccc2c(c1)C=C1Cn3c-2c(C2CCCCC2)c2ccc(cc23)C(=O)NS(=O)(=O)N(C)CCOCCN(C)C1=O")
30
>>> obs_value("COc1ccc2c(c1)C=C1Cn3c-2c(C2CCCCC2)c2ccc(cc23)C(=O)NS(=O)(=O)NCCCCN(C)C1=O")
25
>>> obs_value("COc1ccc2c(c1)C[C@@H]1Cn3c-2c(C2CCCCC2)c2ccc(cc23)C(=O)NS(=O)(=O)N(C)CCOCCN(C)C1=O")
42
>>> obs_value("COc1ccc2c(c1)C=C1Cn3c-2c(C2CCCCC2)c2ccc(cc23)C(=O)NS(=O)(=O)NCCN(C)CCNC1=O")
23

* * *

experiment.description: Metabolic stability in human liver microsomes assessed as compound metabolized at 5 uM after 15 mins
Assay type: ADME, Microsome
test.conditions: read-out: Drug metabolism
This section presents compounds with their documented metabolised at 0.25 h, 5 µM values.
experimental.readout: metabolised at 0.25 h, 5 µM (%)

>>> obs_value("COc1ccc2c(c1)C=C1Cn3c-2c(C2CCCCC2)c2ccc(cc23)C(=O)NS(=O)(=O)N(C)CCCCCNC1=O")
32
>>> obs_value("COc1ccc2c(c1)C=C1Cn3c-2c(C2CCCCC2)c2ccc(cc23)C(=O)NS(=O)(=O)N(C)CCN2CCN(CC2)C1=O")
26
>>> obs_value("CN1CCOCCN(C)S(=O)(=O)NC(=O)c2ccc3c(C4CCCCC4)c4n(c3c2)CC(=Cc2cc(F)ccc2-4)C1=O")
38
>>> obs_value("COc1ccc2c(c1)C=C1Cn3c-2c(C2CCCCC2)c2ccc(cc23)C(=O)NS(=O)(=O)N(C)CCCN(C)C1=O")
18
>>> obs_value("CN1CCOCCN(C)S(=O)(=O)NC(=O)c2ccc3c(C4CCCCC4)c4n(c3c2)CC(=Cc2cc(Cl)ccc2-4)C1=O")
16
>>> obs_value("COc1ccc2c(c1)C=C1Cn3c-2c(C2CCCCC2)c2ccc(cc23)C(=O)NS(=O)(=O)NCCN(C)CCNC1=O")
7
>>> obs_value("COc1ccc2c(c1)C=C1Cn3c-2c(C2CCCCC2)c2ccc(cc23)C(=O)NS(=O)(=O)N(C)CCCCN(C)C1=O")
56
>>> obs_value("COc1ccc2c(c1)C=C1Cn3c-2c(C2CCCCC2)c2ccc(cc23)C(=O)NS(=O)(=O)NCCCCN(C)C1=O")
27
